Target or test system: feline FcRn (IgG receptor FcRn large subunit p51 with feline beta-2-microglobulin) (feline)
Test summary: SPR Biacore 8K+, IgG on C1 chip, pH 5.9, 1:1 kinetic fit
Let's look at some binders and their measured Kd.
// return numeric value only (unit: nM, not printed)

// solved cases for Kd follow
anti-NGF feline IgG1a, Fc variant S428Y, Q311V (antibody, part only; not given: Anti-NGF variable domains, not shown: another chain or arm of the molecule; small tags and cut ends) Fc: PPEMLGGPSIFIFPPKPKDTLSISRTPEVTCLVVDLGPDDSDVQITWFVDNTQVYTAKTSPREEQFNSTYRVVSVLPILHVDWLKGKEFKCKVNSKSLPSPIERTISKAKGQPHEPQVYVLPPAQEELSRNKVSVTCLIKSFHPPDIAVEWEITGQPEPENNYRTTPPQLDSDGTYFVYSKLSVDRSHWQRGNTYTCSVYHEALHSHHTQKSLTQSPGK = 32.2
anti-NGF feline IgG1a, Fc variant S428Y (antibody, part only; not given: anti-NGF variable domains, not shown: another chain or arm of the molecule; small tags and cut ends) Fc: PPEMLGGPSIFIFPPKPKDTLSISRTPEVTCLVVDLGPDDSDVQITWFVDNTQVYTAKTSPREEQFNSTYRVVSVLPILHQDWLKGKEFKCKVNSKSLPSPIERTISKAKGQPHEPQVYVLPPAQEELSRNKVSVTCLIKSFHPPDIAVEWEITGQPEPENNYRTTPPQLDSDGTYFVYSKLSVDRSHWQRGNTYTCSVYHEALHSHHTQKSLTQSPGK = 71.8
anti-NGF feline IgG1a, Fc variant S428Y, L309V, E380T (antibody, part only; not given: anti-NGF variable domains, light chain, not shown: another chain or arm of the molecule; small tags and cut ends) Fc: PPEMLGGPSIFIFPPKPKDTLSISRTPEVTCLVVDLGPDDSDVQITWFVDNTQVYTAKTSPREEQFNSTYRVVSVLPIVHQDWLKGKEFKCKVNSKSLPSPIERTISKAKGQPHEPQVYVLPPAQEELSRNKVSVTCLIKSFHPPDIAVTWEITGQPEPENNYRTTPPQLDSDGTYFVYSKLSVDRSHWQRGNTYTCSVYHEALHSHHTQKSLTQSPGK = 20.6

Query: Which Kd is listed for anti-NGF feline IgG1a, Fc variant S252W (antibody, part only; not given: anti-NGF variable domains, light chain, not shown: another chain or arm of the molecule; small tags and cut ends) Fc: PPEMLGGPSIFIFPPKPKDTLWISRTPEVTCLVVDLGPDDSDVQITWFVDNTQVYTAKTSPREEQFNSTYRVVSVLPILHQDWLKGKEFKCKVNSKSLPSPIERTISKAKGQPHEPQVYVLPPAQEELSRNKVSVTCLIKSFHPPDIAVEWEITGQPEPENNYRTTPPQLDSDGTYFVYSKLSVDRSHWQRGNTYTCSVSHEALHSHHTQKSLTQSPGK ?
Result: 4.01
